Items are presented alongside their recorded inhibition at […].
Biological target: BIR3 domain of human cIAP-1 (residues 267-363) (Homo sapiens (Human), UniProt Q13490)
Experiment: cIAP-1 in vitro competitive displacement binding assay (fluorescence polarization; Probe A AVPIK(5&6FAM)-amide or Probe B AbuRPFK(5&6FAM)-amide)
Conditions: 3 h; Probe B, @ 0.012 μM; read-out: IC50 or PI cIAP1: PI
Counter-ions that a name gives are not always drawn.
Write down the numeric answer in % and omit the unit.

Before answering, review these 2 worked examples.
CCCC(F)(F)c1cc2c(cn1)C(C)(C)CN2C(=O)CN1C[C@@H](C)NC[C@@H]1CN1CCOC[C@H]1C ... 91
C[C@@H]1CN(CC(=O)N2CC(C)(C)c3cnc(Oc4ccccc4Cl)cc32)[C@@H](CN2CCCC2=O)CN1 [Example 182, hydrochloride] ... 62

Identify the reported inhibition at […] for the following entry. C[C@@H]1CN(CC(=O)N2CC(C)(C)c3cnc(Cc4ccc(F)cc4F)cc32)[C@@H](CN2CCOCC2=O)CN1 [Example 191, hydrochloride]
94

====

Molecular target: BIR3 domain of human XIAP (residues 252-350) (Homo sapiens (Human), UniProt P98170)
Assay: XIAP in vitro competitive displacement binding assay (fluorescence polarization)
Settings: read-out: IC50 or PI Xiap: IC50
Where a name gives a salt, the structure may show the parent alone.
Parameter: IC50 (nM)
Write down the numeric answer in nM and omit the unit.

Before answering, review these 5 worked examples.
CCCC(F)(F)c1cnc2c(c1)N(C(=O)CN1C[C@@H](C)NC[C@@H]1CN1C[C@@H](C)O[C@@H](C)C1)CC2(C)C [Example 246, dihydrochloride] ... 43
CCS(=O)(=O)c1cc2c(cc1F)C(C)(C)CN2C(=O)CN1CCN[C@H](C)C1 [Example 51, dihydrochloride salt] ... 1100
C[C@@H]1CN(CC(=O)N2CC(C)(C)c3cnc(Oc4ccccc4Cl)cc32)[C@@H](Cn2cc(F)cn2)CN1 [Example 177, hydrochloride] ... 49
COC[C@H]1CN[C@H](C)CN1CC(=O)N1CC(C)(C)c2cnc(Cc3cccc(F)c3)cc21 [Example 97, hydrochloride salt] ... 340
C[C@@H]1CN(CC(=O)N2CC(C)(C)c3cnc(C(F)(F)c4ccccc4)cc32)[C@@H](CN2C(=O)CCC2=O)CN1 [Example 218, dihydrochloride] ... 61

Identify the reported IC50 for the following entry. C[C@@H]1CN(CC(=O)N2CCc3ccc(OC(F)(F)F)cc32)CCN1 [Example 28, hydrochloride salt]
17000

Identify the reported IC50 for the following entry. C[C@@H]1CN(CC(=O)N2CCc3ccc(S(=O)(=O)N4CCCC4)cc32)CCN1 [Example 37, hydrochloride salt]
1800

Identify the reported IC50 for the following entry. COC[C@H]1CN[C@H](C)CN1CC(=O)N1CC(C)(C)c2cnc(Cc3cccc(Cl)c3)cc21 [Example 86, hydrochloride salt]
290

Identify the reported IC50 for the following entry. COC[C@H]1CN[C@H](C)CN1CC(=O)N1CC(C)(C)c2ccc(S(=O)(=O)Cc3ccccc3)cc21 [Example 70, dihydrochloride salt]
380

Identify the reported IC50 for the following entry. COC[C@H]1CN[C@H](C)CN1CC(=O)N1CC(C)(C)c2cnc(N3CCCC3=O)cc21 [Example 102, hydrochloride salt]
3200

Each recorded value in this set is attributed to patent US9018214B2.
